Cited source for all entries: patent US20250320281A1

System: HIV-1 Env of isolate MGRM-A-006 (pseudovirus) (HIV-1)
Test Description: cell-based or functional assay
Assay Endpoint: IC50 (µg/mL), pseudovirus neutralization

PGT-127 (5145_B14) (antibody, V domains shown) VH: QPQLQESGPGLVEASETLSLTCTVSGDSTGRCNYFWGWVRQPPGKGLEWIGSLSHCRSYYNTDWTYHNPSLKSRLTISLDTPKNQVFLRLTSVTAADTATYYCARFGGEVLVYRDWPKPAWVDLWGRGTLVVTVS VL: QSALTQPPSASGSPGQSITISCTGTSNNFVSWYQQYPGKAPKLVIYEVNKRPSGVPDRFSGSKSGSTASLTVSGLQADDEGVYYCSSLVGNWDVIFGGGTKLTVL	> 50 µg/mL
PGT-125 (5123_A06) (antibody, V domains shown) VH: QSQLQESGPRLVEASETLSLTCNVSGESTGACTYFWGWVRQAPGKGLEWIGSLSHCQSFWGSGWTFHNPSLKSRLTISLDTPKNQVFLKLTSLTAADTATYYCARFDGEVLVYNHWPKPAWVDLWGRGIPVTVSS VL: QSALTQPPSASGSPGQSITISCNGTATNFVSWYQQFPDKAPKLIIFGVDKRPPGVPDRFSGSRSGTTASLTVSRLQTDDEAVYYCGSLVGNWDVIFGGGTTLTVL	> 50 µg/mL

IC50 (µg/mL), pseudovirus neutralization for PGT-123 (4858_P08) (antibody, V domains shown) VH: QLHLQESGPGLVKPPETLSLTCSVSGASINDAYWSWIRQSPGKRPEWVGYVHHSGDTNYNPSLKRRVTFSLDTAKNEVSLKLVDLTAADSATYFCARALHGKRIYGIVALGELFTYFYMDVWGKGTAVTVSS VL: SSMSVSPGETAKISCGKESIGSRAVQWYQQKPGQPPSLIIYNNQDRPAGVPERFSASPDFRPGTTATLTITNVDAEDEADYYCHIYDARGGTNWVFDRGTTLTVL is > 50 µg/mL
